Hello, the source for this data is ChEMBL document CHEMBL1268901, in case you need it.

inhibition at 10 µg/mL reference
System: Hepatitis B virus
Method notes: Antiviral activity against HBV infected in human HepG2(2.2.15) cells assessed as inhibition of viral replication at 10 ug/ml […] relative to control
Assay type: functional
Condition details: HepG2 2.2.15, 48 h
Numeric answer only, unit % assumed.

>>> recorded_value("O=c1[nH]c(=O)n([C@H]2C[C@H](F)[C@@H](CO)O2)cc1O")
0
>>> recorded_value("O=c1[nH]c(=S)ccn1[C@H]1C[C@H](F)[C@@H](CO)O1")
20
>>> recorded_value("O=c1[nH]c(=O)n([C@H]2C[C@H](Cl)[C@@H](CO)O2)cc1F")
0
>>> recorded_value("Cc1cn([C@H]2C[C@H](Cl)[C@@H](CO)O2)c(=O)[nH]c1=O")
56
>>> recorded_value("CCc1cn([C@H]2C[C@H](F)[C@@H](CO)O2)c(=O)[nH]c1=O")
0

Record request: inhibition at 10 µg/mL value, item "O=c1[nH]c(=O)n([C@H]2C[C@H](F)[C@@H](CO)O2)cc1F"
0

Could you share which inhibition at 10 µg/mL value was measured for "O=c1[nH]c(=S)c(F)cn1[C@H]1C[C@H](F)[C@@H](CO)O1" ?
0
